System: IGROV1 ovarian
Experiment: NCI-60 one-dose screen, 48 h
Conditions: 10 µM unless noted
Procedure: Growth inhibition of the IGROV1 human tumor cell line is measured as a screen for anti-cancer activity. Cells are grown in 96 well plates and exposed to the test compound for 48 hours. Compounds are tested at a single concentration, which is 10^-5 M for most compounds. The reported endpoint is percent growth (GI% or GIPRCNT), where numbers from 0 - 100% represent growth inhibition, and numbers from -100% - 0 represent cell death. For example, a value of 40 represents 60% growth inhibition. […]
About 83,000 compounds went through this panel and 20% of them were active in at least one assay; those are over-represented in the sample as a whole. The source made the active and inactive calls. The calls were made as follows: active = growth percent below 10; inactive = the rest.
Please answer using one outcome listed in Yes (active), No (inactive)

Kindly provide the recorded test outcome for the following compound: O=C(Oc1ccccc1[N+](=O)[O-])C1CCCN1C(=O)OCc1ccccc1 (stereo not drawn)
No

What do you get for `O=C(NS(=O)(=O)c1ccc2ccccc2c1)n1cc(-c2ccncc2)c(-c2ccc(Cl)c(O)c2)n1` ?
No

What do you get for `COc1cc(/C=C/c2cc(/C=C/c3ccc(O)c(OC)c3)n(C(N)=O)n2)ccc1O` ?
Yes

What do you get for `C=C1C(=O)O[C@@H]2[C@@H]3O[C@@](C)(CC/C=C(\C)CCC[C@@H]2C)[C@H](O)C[C@@H]13` ?
No

What do you get for `Cc1ccc(-c2cc3nc(-c4ccccc4)nc(C(Cl)Cl)n3n2)cc1` ?
No

What do you get for `COc1ccc(-c2ccc(C)n2-c2ccc(-c3nc4cc(Cl)ccc4s3)cc2)cc1` ?
No

What do you get for `C=C1c2nc3ccccc3n2C=C(c2ccc(Cl)cc2)N1Cc1ccccc1` ?
No

What do you get for CC12CCC3C4(C)COC(c5ccccc5Cl)OC4CCC3(C)C1CC(C1=CCOC1=O)O2 (stereo not drawn) ?
No

###

system: UO-31 renal; experiment: NCI-60 one-dose screen, 48 h; details: 10 µM unless noted
This is part of a sample that, as a whole, favours compounds with a hit. Of some 83,000 tested, about 20% had one in any assay. Calls of active or inactive are those of the source. How the source made its calls: active means growth percent below 10; inactive means the rest.
Please answer using one outcome listed in active, inactive

Solved entries:
COC(=O)c1cc2cc(-c3ccc(OC)cc3)cnc2[nH]1; inactive
COc1ccc(-c2nc(/C=N/Nc3cc(C)nc4ccc(Br)cc34)c(C)o2)cc1; active
COc1cc([N+](=O)[O-])c2ncccc2c1O; inactive

Shift focus to the following entry.
Kindly provide the recorded test outcome for the following molecule: `Cc1ccc(-c2nc(C(Cl)Cl)n3nc(-c4ccccc4)cc3n2)cc1`
inactive

###

tested on: NCI-H23 lung; assay: NCI-60 one-dose screen, 48 h (100 = growth as untreated, 0 = no growth, -100 = all killed); settings: 10 µM unless noted
The panel holds about 83,000 compounds, 20% with a hit somewhere; the sample as a whole holds those more often.
Please respond with reported growth for every item in the list.
Numbers only, in %.

Illustrative cases are given below, each with its answer.
Cc1ccc(S(=O)(=O)NCCCNc2cc(-c3cn(C(C)(C)C)nc3-c3cccc(O)c3)ccn2)cc1; 77
CN1CCN(Cc2ccc(NC(=O)c3cncc(C#Cc4cnc(N)c5ccncc45)c3)cc2C(F)(F)F)CC1; 15.4
COc1ccc(/C=C2\Oc3cc(OCCCN4CCCC4)ccc3C2=O)cc1; 87.2

Please give growth, item by item, for the list that follows.
1. COc1cc(/C=C/C(=O)c2c(C)nc3ccccc3c2C)ccc1OCCCCOc1cc2c(cc1OC)C(=O)N1CCC[C@H]1C=N2
2. OB(O)c1cccc(-c2nc3ccc4[nH]ncc4c3c3c2CCCC3)c1F

[-34.9, 59]

Please give growth, item by item, for the list that follows.
1. CCCCNC(=O)Oc1ccc(/C(=C(\C)c2ccccc2)c2ccc(OCCN(CC)CC)cc2)cc1
2. C=C1C(=O)O[C@H]2[C@H]1CC/C(Cn1cc(-c3cccc(Cl)c3)nn1)=C\CC[C@@]1(C)O[C@@H]21
3. CCOC(=O)C1=C(C)NC(C)=C(C(=O)OCC)C1(C)C
4. Cc1nc2ncccc2nc1Nc1ccc(S(=O)(=O)Nc2ccccn2)cc1

1: 77.5; 2: -35; 3: 113; 4: 90.6
